- Test method notes: amyloid nucleation score (Sup35N fusion, yeast selection) (log enrichment); library NNK2; higher = more nucleation; inactive = no reads after selection;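 further: zero at mode of non-aggregating sequences after 7 days selection at 30°C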
Readout label: amyloid nucleation score
Write the value as a bare number.

[
  {
    "Substance": "SVGRTESAQYRKTV",
    "Result number": 0.568
  },
  {
    "Substance": "SLYLRSRSRISFMGVGQKEL",
    "Result number": 3.28
  },
  {
    "Substance": "MFAVLTGSIFKWKWWTIGFR",
    "Result number": -0.265
  }
]

Check the records and state amyloid nucleation score for `TYKCLTRATKGRNHVFRFCV`
1.08
